Source: PubChem BioAssay

- methodNotes: HUVEC growth inhibition – cell-based, human, primary screen (AID 575);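 further: 100% = median of untreated cell wells with 0.1% DMSO on each plate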
- conditionDetails: HUVEC proliferation, CellTiter-Glo luminescence, 72 h; at 10 µM; active compounds read low
Below, each entry is listed with its recorded viability.
outcomeMeasure: viability (%)

                                    compound  outcomemeasure  units  resultnumber
 0  CC1CN(c2nc(-c3ccccc3)nc3ccccc23)CC(C)O1 (stereo not given)       viability      %          88.2
 1          CCCn1c(-c2ccc(F)cc2)cnc1SCC(=O)O       viability      %           101
 2  Cc1ccc(C)c(NC(=O)c2ccc3c(c2)N(Cc2ccc(F)cc2)C(=O)CS3=O)c1 (stereo not given)       viability      %          95.2
 3  CCOC(=O)c1ccc(NC(=O)CCNc2c(N3CCCC3)c(=O)c2=O)cc1       viability      %          91.6
 4  COc1ccc(C)cc1S(=O)(=O)N1CCN(Cc2ccccc2)CC1       viability      %          96.1
 5           CCOc1ccccc1OCC(=O)Nc1nnc(COC)s1       viability      %          99.5
 6  O=C(C1CCCN(S(=O)(=O)c2ccc(Br)s2)C1)N1CCCCCC1 (stereo not given)       viability      %          98.4
 7           c1ccc(-c2cn3c4c(sc3n2)CCCC4)cc1       viability      %            46
 8  Cc1cccc2cc(CN(CCCO)C(=O)Nc3ccc(Cl)cc3)c(=O)[nH]c12       viability      %          67.9
 9                      O=C1N=C(N2CCOCC2)CS1       viability      %           103
10  COc1cc(N2C(=O)CSC23C(=O)Nc2ccccc23)cc(OC)c1OC (stereo not given)       viability      %          79.7
11  NS(=O)(=O)c1cc2c(cc1C(F)(F)F)NC(Cc1ccccc1)NS2(=O)=O (stereo not given)       viability      %          83.9
12           Nn1c(SCC(=O)NC2CCCCC2)nnc1C1CC1       viability      %          98.4
13      COc1cccc(-n2nnnc2SCC(=O)NCc2ccco2)c1       viability      %          90.5
14  CC1CCN(C(=O)CSc2nnc(-c3ccc(S(=O)(=O)N4CCOCC4)cc3)n2C)CC1       viability      %          93.7
15       Cc1cnc(C(=O)Nc2ccc(N3CCOCC3)cc2)cn1       viability      %           116
16  Cn1cccc1Cc1nnc(SCC(=O)Nc2ccc(F)cc2)n1-c1ccc(F)cc1       viability      %          71.9
17  CCCCS(=O)(=O)NC1=NCN(C2CCN(Cc3ccccc3)CC2)CN1       viability      %          91.5
18  N[C@@H](Cc1cc(I)c(Oc2ccc(O)c(I)c2)c(I)c1)C(=O)O       viability      %          86.9
19  Cc1ccc(S(=O)(=O)N2CCN(CCO)CC2)cc1-c1nnc2c3ccccc3c(C)nn12       viability      %          99.4
20  O=C(NCCC1=CCCCC1)C1CCN(C(=O)Nc2ccccc2)CC1       viability      %          91.3
21  CN(C)CCN1C(=O)c2oc3ccc(Cl)cc3c(=O)c2C1c1cccc(Br)c1 (stereo not given)       viability      %          87.9
22  CC(COc1ccccc1)NC(C)C(O)c1ccc(O)cc1 (stereo not given)       viability      %          88.5
23   CCOC(=O)c1[nH]c(C)c(C(=O)NCc2ccccn2)c1C       viability      %          83.4
24  C[C@]12CC[C@@H]3c4ccc(OS(=O)(=O)O)cc4CC[C@H]3[C@@H]1CCC2=O       viability      %          99.6
25  CCOCCCNC(=O)c1c[nH]c2ccc(S(=O)(=O)Nc3cccc(OC)c3)cc2c1=O       viability      %          83.4
26  COc1ccccc1N1CCN(C(=O)C(Cc2ccccc2)NC(=O)C2CCCCC2)CC1 (stereo not given)       viability      %          74.8
27  CCn1c(=O)c(=O)[nH]c2cc(C(=O)N3CCN(c4ccccc4F)CC3)ccc21       viability      %          97.1
28  Cc1ccc2nsnc2c1S(=O)(=O)N(Cc1cc2cccc(C)c2[nH]c1=O)CC1CCCO1 (stereo not given)       viability      %          82.3
29  Cc1cc2cc(CN(CCCN3CCOCC3)C(=O)NC3CCCCC3)c(=O)[nH]c2cc1C       viability      %          70.2
30  O=C(N1CCOCC1)N1CCC(NC(=O)C23CC4CC(CC(C4)C2)C3)CC1       viability      %          99.6
31        COC(=O)c1cc(=O)nc2sc(-c3cccs3)nn12       viability      %            84
32                Cn1c(SCC(=O)O)nnc1C1CCCCC1       viability      %          99.7
33  O=C1CCCC2=C1C(c1ccc(Br)cc1)c1c([nH]c(=S)[nH]c1=O)N2 (stereo not given)       viability      %          99.3
34  CC1CCCCC1NC(=O)CN1CCN(Cc2ccccc2Cl)C1=O (stereo not given)       viability      %          90.9
35               Cc1ccc(-c2nc3ccccc3[nH]2)s1       viability      %          59.8
36  COc1ccccc1-c1nc(C#N)c(N2CCN(c3ccccc3)CC2)o1       viability      %          70.4
37  Cc1cc(NC(=O)C23CCC(C)(c4nc5cc(Cl)c(Cl)cc5nc42)C3(C)C)no1 (stereo not given)       viability      %          88.5
38       O=C(CSc1nccn1-c1cccc(Cl)c1)NC1CCCC1       viability      %          95.5
39    O=C(Nc1cccc(NC(=O)c2cccnc2)c1)c1cccnc1       viability      %           119
40               COC(=O)CCC(=O)Nc1cccc(Br)c1       viability      %           110
41   O=c1c2ccccc2nc(SCc2cccc(F)c2)n1Cc1ccco1       viability      %          87.6
42  CCN1CCN(c2cc3c(cc2F)c(=O)c(C(=O)O)cn3C2CC2)CC1       viability      %          98.3
43         COC(=O)c1cc(Br)c(=O)n(-c2nccs2)c1       viability      %           107
44  COc1cccc(C(c2nnnn2CCc2ccccc2)N2CCN(c3ccccc3)CC2)c1OC (stereo not given)       viability      %           109
